# inhibition at 30 µg/mL per entry
- System: A498
- Assay overview: Cytotoxicity against human A498 cells assessed as growth inhibition after at 30 ug/ml 48 hrs by SRB assay
- Type: functional
- Recorded conditions: A498, 48 h
Measurement label: inhibition at 30 µg/mL (%)

# Compound, Experimental system, Measured
records = [
    ("CC(=O)O[C@@]12CO[C@@H]1C[C@H](O)[C@@]1(C)C(=O)[C@H](O)C3=C(C)[C@@H](O)C[C@@](O)([C@@H](OC(=O)c4ccccc4)[C@H]21)C3(C)C", "A498", 27),
    ("CC(=O)O[C@H]1C[C@H](OC(C)=O)[C@]2(C)[C@@H]([C@@H]1CO)[C@H](OC(C)=O)[C@]1(C(C)(C)O)C[C@H](O)C(C)=C1[C@@H](O)[C@@H]2OC(C)=O [TAXAYUNTIN G]", "A498", 21.2),
    ("CC(=O)O[C@H]1C(=O)[C@@]2(CO)[C@H]([C@H](OC(=O)c3ccccc3)[C@]3(O)C[C@H](O)C(C)=C1C3(C)C)[C@]1(OC(C)=O)CO[C@@H]1C[C@@H]2O", "A498", 26.7),
    ("CC(=O)O[C@@]12CO[C@@H]1C[C@H](O)[C@@]1(C)C(=O)C(=O)C3=C(C)[C@@H](O)C[C@@](O)([C@@H](OC(=O)c4ccccc4)[C@H]21)C3(C)C", "A498", 79.1),
    ("CC(=O)O[C@H]1C(=O)[C@@]2(C)[C@H]([C@H](OC(=O)c3ccccc3)[C@]3(O)C[C@H](OC(=O)[C@H](O)[C@@H](NC(=O)c4ccccc4)c4ccccc4)C(C)=C1C3(C)C)[C@]1(OC(C)=O)CO[C@@H]1C[C@@H]2O [PACLITAXEL]", "A498", 98.2),
    ("CC(=O)O[C@H]1C[C@H]2OC[C@@]2(OC(C)=O)[C@H]2[C@H](OC(=O)c3ccccc3)[C@]3(C(C)(C)O)C[C@H](O)C(C)=C3[C@@H](O)[C@H](OC(C)=O)[C@]12C", "A498", 21.7),
]
